Attribute: k2/Ks
Target: human NDP kinase A (NDPK-A, nm23-H1), wild type (Homo sapiens, UniProt P15531)
Construct: made in house
Sequence (P15531 whole entry): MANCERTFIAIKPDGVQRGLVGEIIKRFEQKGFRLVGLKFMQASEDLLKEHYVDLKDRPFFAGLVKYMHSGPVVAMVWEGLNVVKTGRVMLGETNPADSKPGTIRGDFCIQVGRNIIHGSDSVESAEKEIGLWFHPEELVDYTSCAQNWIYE
Assay: Pre-steady-state phosphotransfer, fluorescence stopped-flow
Format: biochemical
Settings: catalytic efficiency of phosphotransfer, NDPK-A, pre-steady state
The figure you give is taken to be in M⁻¹ s⁻¹; do not add the unit.

Fill in reported k2/Ks for this entry: `Nc1nc2c(ncn2COCCOP(=O)(O)OP(=O)(O)OP(=O)(O)O)c(=O)[nH]1`
25

Fill in reported k2/Ks for this entry: `Nc1nc2c(ncn2[C@H]2C[C@H](O)[C@@H](COP(=O)(O)OP(=O)(O)OP(=O)(O)O)O2)c(=O)[nH]1`
3.6e+06

Fill in reported k2/Ks for this entry: Cc1cn([C@H]2C=C[C@@H](COP(=O)(O)OP(=O)(O)OP(=O)(O)O)O2)c(=O)[nH]c1=O [d4T-TP, dideoxy, didehydro-TTP]
700

Fill in reported k2/Ks for this entry: `Cc1cn([C@H]2C[C@H](O)[C@@H](COP(=O)(O)OP(=O)(O)OP(=O)(O)O)O2)c(=O)[nH]c1=O`
1.2e+06

Fill in reported k2/Ks for this entry: `Nc1nc2c(ncn2[C@H]2CC[C@@H](COP(=O)(O)OP(=O)(O)OP(=O)(O)O)O2)c(=O)[nH]1`
190

Fill in reported k2/Ks for this entry: `Cc1cn([C@H]2CC[C@@H](COP(=O)(O)OP(=O)(O)OP(=O)(O)O)O2)c(=O)[nH]c1=O`
20

Fill in reported k2/Ks for this entry: `Cc1cn([C@H]2C[C@H](N=[N+]=[N-])[C@@H](COP(=O)(O)OP(=O)(O)OP(=O)(O)O)O2)c(=O)[nH]c1=O`
75

* * *

Biological target: human NDP kinase A (NDPK-A) variant L55H (Homo sapiens, UniProt P15531, L55H)
Construct: made in house; host or cells: E. coli
Sequence (P15531 whole entry L55H): as the sequence (P15531 whole entry) above, with L55H counted along it
Assay: Pre-steady-state phosphotransfer, fluorescence stopped-flow
Format: biochemical
Settings: catalytic efficiency of phosphotransfer, L55H, pre-steady state
Protocol: FIG. 3 depicts the catalytic efficiency of NDPK-A and mutants for nucleoside analogs. The rates of phosphorylation of pure recombinant NDP kinases (1 μM) were measured at the pre-steady state in a fluorescence stopped-flow with d4T-TP (10 to 80 μM). The catalytic efficiency (expressed in M^−1s^−1) was determined from the variation of the rate as a function of analog as shown in FIG. 2 (▾, NDPK-A, ♦ L55H, ● N115S, ▪ L55H-N115S). […] The data were analyzed using the reaction scheme: [drawing 1] […]
ASSAY READOUT: log10 of k2/Ks (log10 of the value in M⁻¹ s⁻¹)
Field: value | Transform: log10 | Quantity: k2/Ks | Unit: M⁻¹ s⁻¹

Fill in reported log10 of k2/Ks for this entry: Cc1cn([C@H]2C[C@H](N=[N+]=[N-])[C@@H](COP(=O)(O)OP(=O)(O)OP(=O)(O)O)O2)c(=O)[nH]c1=O [AZT-TP]
2.97

Fill in reported log10 of k2/Ks for this entry: Cc1cn([C@H]2C[C@H](O)[C@@H](COP(=O)(O)OP(=O)(O)OP(=O)(O)O)O2)c(=O)[nH]c1=O [dTTP]
6.30

Fill in reported log10 of k2/Ks for this entry: Cc1cn([C@H]2CC[C@@H](COP(=O)(O)OP(=O)(O)OP(=O)(O)O)O2)c(=O)[nH]c1=O [dideoxy-TTP]
2.30

Fill in reported log10 of k2/Ks for this entry: Nc1nc2c(ncn2COCCOP(=O)(O)OP(=O)(O)OP(=O)(O)O)c(=O)[nH]1 [acyclovirTP]
2.20

Fill in reported log10 of k2/Ks for this entry: Cc1cn([C@H]2C=C[C@@H](COP(=O)(O)OP(=O)(O)OP(=O)(O)O)O2)c(=O)[nH]c1=O [d4T-TP, dideoxy, didehydro-TTP]
3.11

Fill in reported log10 of k2/Ks for this entry: Nc1nc2c(ncn2[C@H]2C[C@H](O)[C@@H](COP(=O)(O)OP(=O)(O)OP(=O)(O)O)O2)c(=O)[nH]1 [dGTP]
6.83

* * *

Target: Dictyostelium discoideum NDP kinase inactive variant EI-N119S (H122G-F64W-N119S) (Dictyostelium discoideum, UniProt P22887, F64W/H122G/N119S)
Sequence (P22887 whole entry F64W/N119S/H122G): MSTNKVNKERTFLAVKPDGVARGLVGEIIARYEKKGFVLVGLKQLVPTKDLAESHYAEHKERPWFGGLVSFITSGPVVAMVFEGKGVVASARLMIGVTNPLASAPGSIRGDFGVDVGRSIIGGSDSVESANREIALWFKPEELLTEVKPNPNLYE
Assay: biochemical
Experimental: The binding constants were determined at equilibrium by recording the increase in fluorescence (Schneider, 2000). Analog binding affinity was measured using a variant of Dd-NDPK (EI) as described (Schneider, 2000). […] The mutation N119S was inserted in EI in order to measure the nucleotide affinity by fluorescence titration. Altered bases as compared to the wild type sequence are underlined in bold. Sequences were checked by automatic sequencing. […]
Attribute: Kd
The figure you give is taken to be in nM; do not add the unit.

Answered examples (5):
> print(dat)
                              smiles.string  numeric.readout
1  Nc1nc2c(ncn2[C@H]2CC[C@@H](COP(=O)(O)OP(=O)(O)OP(=O)(O)O)O2)c(=O)[nH]1             2000
2  Cc1cn([C@H]2C[C@H](O)[C@@H](COP(=O)(O)OP(=O)(O)OP(=O)(O)O)O2)c(=O)[nH]c1=O             5200
3  Nc1ncnc2c1ncn2[C@H]1CC[C@@H](COP(=O)(O)OP(=O)(O)OP(=O)(O)O)O1             2600
4  Nc1ncnc2c1ncn2[C@@H]1O[C@H](COP(=O)(O)OP(=O)(O)OP(=O)(O)O)[C@@H](O)[C@H]1O             2400
5  Nc1nc2c(ncn2[C@@H]2O[C@H](COP(=O)(O)OP(=O)(O)OP(=O)(O)O)[C@@H](O)[C@H]2O)c(=O)[nH]1             1100

Fill in reported Kd for this entry: `Cc1cn([C@H]2C[C@H](N=[N+]=[N-])[C@@H](COP(=O)(O)OP(=O)(O)OP(=O)(O)O)O2)c(=O)[nH]c1=O`
2200

Fill in reported Kd for this entry: `Nc1nc2c(ncn2COCCOP(=O)(O)OP(=O)(O)OP(=O)(O)O)c(=O)[nH]1`
20000

* * *

Target: human NDP kinase A (NDPK-A) variant N115S, SEQ ID NO: 2 (Homo sapiens, UniProt P15531, N115S)
Construct: made in house; host or cells: E. coli
Sequence (P15531 whole entry N115S): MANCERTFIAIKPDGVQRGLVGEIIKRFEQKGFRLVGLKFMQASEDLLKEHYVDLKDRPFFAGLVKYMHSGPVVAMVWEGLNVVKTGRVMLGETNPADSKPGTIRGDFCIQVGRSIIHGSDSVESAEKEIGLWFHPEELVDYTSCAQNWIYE
Assay: Pre-steady-state phosphotransfer, fluorescence stopped-flow
Type: biochemical
Conditions: ratio of catalytic efficiencies analog vs natural nucleotide, mutant vs wild type
ASSAY READOUT: Specificity change (R)

> print(dat)
                                   compound           assay.readout  result
1  Cc1cn([C@H]2C[C@H](N=[N+]=[N-])[C@@H](COP(=O)(O)OP(=O)(O)OP(=O)(O)O)O2)c(=O)[nH]c1=O  Specificity change (R)   (125)
2  Nc1nc2c(ncn2COCCOP(=O)(O)OP(=O)(O)OP(=O)(O)O)c(=O)[nH]1  Specificity change (R)   (150)
3  Cc1cn([C@H]2C=C[C@@H](COP(=O)(O)OP(=O)(O)OP(=O)(O)O)O2)c(=O)[nH]c1=O [d4T-TP, dideoxy, didehydro-TTP]  Specificity change (R)   (120)
4  Cc1cn([C@H]2CC[C@@H](COP(=O)(O)OP(=O)(O)OP(=O)(O)O)O2)c(=O)[nH]c1=O  Specificity change (R)   (100)

Shifting focus to the compound that follows.
Fill in reported Specificity change (R) for this entry: `Nc1nc2c(ncn2[C@H]2CC[C@@H](COP(=O)(O)OP(=O)(O)OP(=O)(O)O)O2)c(=O)[nH]1`
(60)

* * *

Target: human NDP kinase A (NDPK-A) variant L55H (Homo sapiens, UniProt P15531, L55H)
Construct: made in house; host or cells: E. coli
Assay: Pre-steady-state phosphotransfer, fluorescence stopped-flow
Format: biochemical
Details: ratio of catalytic efficiencies analog vs natural nucleotide, mutant vs wild type
ASSAY READOUT: Specificity change (R)

> print(dat)
                                   compound                             tested.target           assay.readout  result
1  Cc1cn([C@H]2C=C[C@@H](COP(=O)(O)OP(=O)(O)OP(=O)(O)O)O2)c(=O)[nH]c1=O [d4T-TP, dideoxy, didehydro-TTP]  human NDP kinase A (NDPK-A) variant L55H (Homo sapiens, UniProt P15531, L55H)  Specificity change (R)    (10)
2  Cc1cn([C@H]2CC[C@@H](COP(=O)(O)OP(=O)(O)OP(=O)(O)O)O2)c(=O)[nH]c1=O  human NDP kinase A (NDPK-A) variant L55H (Homo sapiens, UniProt P15531, L55H)  Specificity change (R)     (6)
3  Cc1cn([C@H]2C[C@H](N=[N+]=[N-])[C@@H](COP(=O)(O)OP(=O)(O)OP(=O)(O)O)O2)c(=O)[nH]c1=O  human NDP kinase A (NDPK-A) variant L55H (Homo sapiens, UniProt P15531, L55H)  Specificity change (R)     (8)
4  Nc1nc2c(ncn2COCCOP(=O)(O)OP(=O)(O)OP(=O)(O)O)c(=O)[nH]1  human NDP kinase A (NDPK-A) variant L55H (Homo sapiens, UniProt P15531, L55H)  Specificity change (R)   (3.4)

Taken from patent US20030207830A1.
